target: recombinant PvSUB1 (Plasmodium vivax); test: FRET-based PvSUB1 enzymatic assay, Ki determination; conditions: Dabsyl Edans substrate; mean of at least three independent experiments ± SEM
property: pKi
Worth noting: pKi values are minus log10 of concentrations stated in mol/L.

Consider the worked cases shown below.
>>> df
                                   compound  measvalue
0  O=C(Cn1ncc2c3ccccc3n(Cc3cccc(Cl)c3)c2c1=O)N1CCc2ccccc21 [B/H5]       5.85
1  COc1cccc(C2c3c(-c4ccc(F)cc4)n[nH]c3C(=O)N2c2ccccc2)c1 (stereo not drawn) [A/G6]       5.09

We now examine a further compound.
Bench note: what pKi did O=C(C[n+]1cccc(C(=O)Nc2ccccc2)c1)c1ccc(NC(=O)c2ccccc2)cc1 [A/G1] show?
5.26
